experimental details: Sulforhodamine B (SRB) growth inhibition / growth arrest assay
Format: cell-based
condition description: cell line not named
pIC50: −log10 of the molar value.
property label: pIC50

Return reported pIC50; argument: COc1ccc(-c2c(C)noc2-c2cc(Br)c(O)cc2O)cc1
> 4.30
